# EXPERIMENTAL DETAILS: MTT viability assay, 72 h
# Type: cell-based
# EXPERIMENTAL CONDITIONS: human, HeLa-CD4-LTR-LacZ cells, mean ± SD, n = 2 to 3
Quick rule for you: CC50 at 72 h under 20 µM gets Condition met, anything else gets Condition not met.

Is CC50 at 72 h of CN(C)C1CC23CCC4(O2)C(=CCC2(C)C(c5ccc6ccncc6c5)C(=O)CC42)C=C3C(O)C1O (stereo not drawn) strictly below 20 µM? Condition not met

Report whether reported CC50 at 72 h is lower than 20 µM (strictly) for CC(=O)N(C)C1CC23CCC4(O2)C(=CCC2(C)C(c5ccc6ccncc6c5)=CCC24)C=C3C(O)C1O (stereo not drawn) Condition met

I'd appreciate it if you could check whether Cc1n[nH]c2cc(C3=CCC4C3(C)CC=C3C=C5C(O)C(O)C(N(C)C)CC56CCC34O6)ccc12 (stereo not drawn) has CC50 at 72 h smaller than 20 µM. Condition met

In the record for CN(C)C1CC23CCC4(O2)C(=CCC2(C)C(c5ccc6cnncc6c5)=CCC24)C=C3C(O)C1O (stereo not drawn) , is CC50 at 72 h less than 20 µM? Condition met

Identify whether the compound CC12CC=C3C=C4C(O)C(O)C(N)CC45CCC3(O5)C1CC=C2c1ccc2ccncc2c1 (stereo not drawn) records CC50 at 72 h below 20 µM. Condition not met

Value source: paper PMC6368365
